Tested on: K4 kissing-loop RNA reporter
Assay: apparent KD of K4 kissing-loop reporter; higher = weaker reporter binding
Details: Eterna round: R107; input ligand: FMN 200 uM
Give y when the value for apparent KD of K4 kissing-loop reporter is at least 300 nM. Give n when it is less.

Hi team, for CACCCAGUCCUCGAUACCAGACUGGCACGUCAAAAGGUCCAGUGAUGUUGAGCCUAACAAGUCCCUUGGCAGCGACCAGUGUAUU [theeternabot_exclusion_KL_Theo_B_30] , is the recorded apparent KD of K4 kissing-loop reporter at or above 300 nM?
y

Quick check: does GCGCGUCAUGUCAGCGGUGACUAUGUCGAUACCAGCGCCGCAAGGCGCCCUUGGCAGCGACGCGCUGGAGUGAUGUUCCGACGGC [#2 Exclusion - Theophylline A Attempt #9 (HarryS)] have apparent KD of K4 kissing-loop reporter greater than or equal to 300 nM?
n

Please tell me: is the sequence CCUAUCUCAUACGAUACCAGUCAAUGAUCUUUGAUCAAUGCCAUCACCGAGUGAUGUUCGGACCCUUGGCAGCGUAUGGGAUAGG [whbob_Ex_Theo_B_sa102] at or over 300 nM in terms of apparent KD of K4 kissing-loop reporter?
n

Could you please find out whether UUCUUGAUGGAAACAUCGAGAAUUACUGAUACCAGUAUCGAUAGAUACCCUUGGCAGCAGAAUCAGUAAUAACGAGUGAUGUUCG [Ex Theophylline A K4 4] has apparent KD of K4 kissing-loop reporter that meets 300 nM or exceeds it?
y

Reported apparent KD of K4 kissing-loop reporter at or above 300 nM? GCAAAGUGUCAUAUUAUCUAGCAGCUGCGAAAGGAUAUGAGAGUGCUCAGAAGGUUCUUGGCGGAGUGAUGUUCCGCGUAAAUGG [theeternabot_exclusion_KL_FMN_A_22]
n

###

Tested on: MS2 coat protein
Assay: apparent KD of MS2 coat protein; designed switch direction (-1 OFF switch, 1 ON switch): -1; higher = weaker reporter binding
Conditions: input ligand: FMN 200 uM
Measured apparent KD of MS2 coat protein accompanies every entry in the list below.
Answer with a number only, understood to be in nM.

{"residues": "GCGCCAUCGUGAGAUGGCGUUCCGACAUGAGGAUCACCCAUGUAGGAUAUCGAUUGCUUUGCAGUCGAGAAGGGCGUGAUAAGU [JL ENG3 3.73] (Eterna round: R96, puzzle: Exclusion NG 3)", "assayed system": "MS2 coat protein", "measured number": 18.3}
{"residues": "CCUCCGGUACGAGGAUAUCUGACGGCCGCCGGAGGAGAAGGCGUACAUGAGGAUCACCCAUGUCCAGCGUGCACCACGCUGGUU [Usbius] (Eterna round: R96, puzzle: Exclusion NG 1)", "assayed system": "MS2 coat protein", "measured number": 119}

Lab note: next sequence to report on.
Given CGAGCCUAUGUAAGGAUAUCACAAUAAAACCAGUGUGAGAAGGUACAUGAGGAUCACCCAUGUUCACGACUGGC [BmEX4 A.26] (Eterna round: R97, puzzle: Brourd's mod of Exclusion 4) , report its apparent KD of MS2 coat protein on MS2 coat protein.
16.9

###

Catalogue of apparent KD of K4 kissing-loop reporter readings, one per entry.
Test system: K4 kissing-loop RNA reporter
Assay: apparent KD of K4 kissing-loop reporter; higher = weaker reporter binding
Settings: Eterna round: R107; input ligand: FMN 200 uM
Just the number please, in nM, no unit attached.

Please review the following examples before continuing.
{"residues": "CGCGCCCGGCCGGAUACCAGUGACCCGCUGGGAACCGCGGGCCCAGAGUGAUGUUCGGGACACCCUUGGCAGCCGCCUGGGCGUG [#2 Same State - Theophylline B Attempt #5 (HarryS)]", "assayed system": "K4 kissing-loop RNA reporter", "apparent KD of K4 kissing-loop reporter [nM]": 1110}
{"residues": "GCCGUACGCAUGGAUACCAGCUGCGAAGUGAUGUUUCGGGCGAUCAAAGGAUCGCCCUACAGCCCUUGGCAGCCAUGCGUACGGC", "assayed system": "K4 kissing-loop RNA reporter", "apparent KD of K4 kissing-loop reporter [nM]": 215}

Output apparent KD of K4 kissing-loop reporter of AGGCACGAGCAAGGAUAUCGAGUAGAGUGAUGUUCUGCCUGGGUUGGCUCGCAAGGGCCUUCCCAGCGAGAAGGUGCUCGUGCCU [#2 Same State - FMN A Attempt #17 (HarryS)]
277

###

We begin with a simple list: items and their reported apparent KD of MS2 coat protein.
System: MS2 coat protein
Assay: apparent KD of MS2 coat protein; designed switch direction (-1 OFF switch, 1 ON switch): 1; higher = weaker reporter binding
Conditions: input ligand: FMN 200 uM

Use the examples below as a reference point.
{"residues": "UUGAAUAAUUAAGGAUAUCGAGUACAUAUGUUAAACAUGAGGAUCACCCAUGUGGGUUGCGGUAUCGAGAAGGUAAAAGACAAG [Mat - Same State NG 2 - JL mod - D59] (Eterna round: R96, puzzle: Same State NG 2)", "assayed system": "MS2 coat protein", "apparent KD of MS2 coat protein": "31.2 nM"}
{"residues": "GUGGAGAAUUAAGGAUAUUGAAUACAUAUGUUUAACAUGAGGAUCACCCAUGUGGGUUGCGGUAUCGAGAAGGUAAAUUACUGG [salish99_SSNG2_r04_033] (Eterna round: R96, puzzle: Same State NG 2)", "assayed system": "MS2 coat protein", "apparent KD of MS2 coat protein": "126 nM"}
{"residues": "CCAGCUUCGGCAGGAUAUGGCGCGCCACUACGCCCAGAAGGGCCGGAAGAUACUACAACCACUACAUGAGGAUCACCCAUGUCA [Eternabot solution 1] (Eterna round: R96, puzzle: Same State NG 1)", "assayed system": "MS2 coat protein", "apparent KD of MS2 coat protein": "30.7 nM"}

Continue with the sequence presented below.
Please give the documented apparent KD of MS2 coat protein of GGUCGGAACCACAUGAGGAUCACCCAUGUUCCGGAAACGGCGCAGGAUAUCUGUCCGAAAAGGUCAGAGAAGGGUGAACCGACC [Fiskers NG3ss - 78] (Eterna round: R96, puzzle: Same State NG 3)
462 nM

###

Test system: K4 kissing-loop RNA reporter;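 also: bound reporter read as fluorescence of individual clusters on recovered sequencing chips by microscopy, with normalized cluster intensities fitted with a binding model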
Test: apparent KD of K4 kissing-loop reporter; higher = weaker reporter binding
Conditions: Eterna round: R107; input ligand: FMN 200 uM
quantity measured: apparent KD of K4 kissing-loop reporter (nM)
Value expressed in nM; do not type the unit.

Consider the reported apparent KD of K4 kissing-loop reporter for these sequences:
{"residues": "UGUACCGAGUCAGGAUAUGGCCGGAAACGGAAUAACCAGUGAUGUUGGAAUAAAUGGCGAAAGCCUCCAGAAGGGACUUGGUACU [FmnBS 18 #SwitchBubble #StaticStem #DoubleMagnetSystem]", "measured number": 158}
{"residues": "AGGAGCGUGGGAUGUAAAUCGCACGCUCCUCGAGGACCGGUACGGCCGCCACUCGCUCGCGCCGAGUGAUGUUCGGCCGGCGAAC [#2 Same State - Tryptophan A Attempt #13 (HarryS)]", "measured number": 243}

Turning now to a further record.
Item UGUCAUUGGUCGGCCGCCACUUUGUAUGGAGUGAUGUUUUGUAGAUUGUGUUGAAAGGUGUGGUGAAGGACCGGGACCGAUGACU [FiskerMod 24 - Jieux - Same State - Tryptophan B] : provide apparent KD of K4 kissing-loop reporter
1070

###

System: MS2 coat protein
Test: apparent KD of MS2 coat protein; designed switch direction (-1 OFF switch, 1 ON switch): -1; higher = weaker reporter binding
Conditions: Eterna round: R95; input ligand: FMN 200 uM
Listed here are sequences together with their documented apparent KD of MS2 coat protein.
Form entry: value (nM) — number only.

See these solved cases before continuing.
{"residues": "AGUUGUUGUUUCCGUUCUUACAUGAGGAUCACCCAUGUUUCUUGUCGUGCUCGCGUUGCUCGUCUGGCUACCUGUUG [salish99_TOv1_r3_068] (puzzle: Sensor v3, turn-off variant 1)", "unit descriptor": "nM", "apparent KD of MS2 coat protein": 33.9}
{"residues": "GAGUGACAUGAGGAUCACCCAUGUGAGGAUAUCGGACGGACCAAAUUAACAAUAGAAGCGAGAAGGCACAUAAG [Exclusion 1 V11] (puzzle: Exclusion 1)", "unit descriptor": "nM", "apparent KD of MS2 coat protein": 72.4}
{"residues": "ACGAAAGCAAACAGGUGAAACAUGAGGAUCACCCAUGUCCUCAUUUGCUCGUCUUAUAAGCUAUGCGAAAGCAUAGC [Mat - Sensor v3 - turn-off var 1 - Eli Mod - D53] (puzzle: Sensor v3, turn-off variant 1)", "unit descriptor": "nM", "apparent KD of MS2 coat protein": 60.4}
{"residues": "GGUGAGCGAGGAUAUACAUGAGGAUCACCCAUGUGAGAGAAUAAAGUGAGGAAGAAAAGUAGAAGGCGCGAACG [Mat - Exclusion 3 - Mod of Salish D47] (puzzle: Exclusion 3)", "unit descriptor": "nM", "apparent KD of MS2 coat protein": 91.4}

Please report apparent KD of MS2 coat protein with MS2 coat protein for item AGUACUAACACGUUAGUGUUAGUACAAUAAGCUUGUGAAACAUGAGGAUCACCCAUGUCCUCAUAAGCUCGUCUUAU [salish99_TOv2_r3_056] (puzzle: Sensor v3, turn-off variant 2) .
16.7

Give MS2 coat protein apparent KD of MS2 coat protein for the following sequence: GCAGGAUAAGUGAGGAUAUACCUAUGGAUACAUAGGUAGAAGGCACAUGAGGAUCACCCAUGUUCCUAACCUGC [Fiskers BMX 4 - 68] (puzzle: Brourd's mod of Exclusion 4)
70.9

State apparent KD of MS2 coat protein on MS2 coat protein. Entry: CUAGAUCUUCGGAUCUAGUACAUGAGGAUCACCCAUGUGACGAGUUACAUGAAAAACAAGCUUUUUGCUCGUCUUAU [Sensor v3 - Turn-off variant 1 - 8] (puzzle: Sensor v3, turn-off variant 1)
41.6

Using MS2 coat protein as the test system, report measured apparent KD of MS2 coat protein of CUGAGCAGACGGAGAUCCAACAUGAGGAUCACCCAUGUCUCAAAAGCUUUUUGCUUGUCUUACCCUCCUCUGUUCUC [Isceeren] (puzzle: Sensor v3, turn-off variant 1) .
18.1

Print MS2 coat protein apparent KD of MS2 coat protein for CAGUACUGAGGAUAUACAUGAGGAUCACCCAUGUGUUCGAGCUAGGAAACUAGCAAAAGUAGAAGGCAGUACUG [salish99_ex3_r3_080] (puzzle: Exclusion 3) .
85.2

Report apparent KD of MS2 coat protein from MS2 coat protein testing of AAUGCAAGCAAGAUCCUAAACAUGAGGAUCACCCAUGUGCUCGUCUUAUAAAGUACUAUCACGAAAGUGAUAGUACA [Sensor 3, v1 - 64] (puzzle: Sensor v3, turn-off variant 1)
515

Return reported apparent KD of MS2 coat protein for target or system MS2 coat protein, item UAAUACAAGUAGAGAUUCUACAUGAGGAUCACCCAUGUGCUCGUCUUAUAAAGUACUAUCACGAAAGUGAUAGUACU [Mat - Sensor v3 - turn-off var 1 - Eli Mod - D98] (puzzle: Sensor v3, turn-off variant 1) .
18.3
